target: recombinant human GST-SYK (Homo sapiens); construct: purchased Carna Biosciences 08-176; assay: Homogeneous Time-Resolved Fluorescence (HTRF) assay for the recombinant human Syk enzyme; type: biochemical; details: GST-hSYK 5 pM, ATP 25 μM, values in text, read-out: IC50
reportedMetric: IC50 (nM)
State just the number; it will be interpreted in nM.

Reference set, count: 5
Cc1cc(Nc2nccc(C(F)F)n2)cc(-c2cnc([C@H](C)[C@H]3CC[C@H](C(=O)O)[C@H](C)C3)nc2)c1 (single isomer, unassigned) [Example 7.5]; 0.8
Cc1cc(Nc2nccc(C(F)(F)F)n2)cc(-c2cnc(NC3(C(N)=O)CC3)nc2)c1 [Example 4.1]; 21.6
Cc1cc(Nc2nccc(C(F)F)n2)cc(-c2cnc([C@H](C)[C@H]3CC[C@H](C(=O)O)[C@H](C)C3)nc2)c1 (single isomer, unassigned) [Example 7.7]; 1.2
Cc1cc(Nc2nccc(C(F)F)n2)cc(-c2cnc([C@H](C)[C@H]3CC[C@H](C(=O)O)[C@H](C)C3)nc2)c1 (single isomer, unassigned) [Example 7.6]; 0.7
Cc1cc(Nc2nccc(C(F)F)n2)cc(-c2cnc([C@@H](C)[C@H]3CC[C@H](C(=O)O)CC3)nc2)c1 (single isomer, unassigned) [Example 6.1]; 0.6

Now take the following molecule into account.
I'd like to know its IC50. The molecule in question is Cc1cc(Nc2nccc(C(F)F)n2)cc(-c2cnc([C@H](C)[C@H]3CC[C@H](C(=O)O)[C@H](C)C3)nc2)c1 (single isomer, unassigned) [Example 7.4]
0.8

====

The following compounds are listed with their measured pIC50 values.
target: recombinant human GST-SYK (Homo sapiens); construct: purchased Carna Biosciences 08-176; assay: Homogeneous Time-Resolved Fluorescence (HTRF) assay for the recombinant human Syk enzyme; assay type: biochemical; details: GST-hSYK 5 pM, ATP 25 μM, IC50 rated in classes, read-out: rhSYK Activity
pIC50: −log10 of the molar value.

Cc1cc(Nc2nccc(C(F)(F)F)n2)cc(-c2cnc(NCC3CCC(=O)N3)nc2)c1 (stereo not shown) [Example 2.22]; > 7.00
Cc1cc(Nc2nccc(C(F)(F)F)n2)cc(-c2cnc(N3CCCC(C)(O)C3)nc2)c1 (stereo not shown) [Example 2.27]; > 7.00
Cc1cc(Nc2nccc(C(F)(F)F)n2)cc(-c2cnc(NCC(=O)O)nc2)c1 [Example 2.12]; > 7.00
CNC(=O)C1CCCN1c1ncc(-c2cc(C)cc(Nc3nccc(C(F)(F)F)n3)c2)cn1 (racemic) [Example 2.70]; > 7.00
Cc1cc(Nc2nccc(C(F)(F)F)n2)cc(-c2cnc(NCCCO)nc2)c1 [Example 2.34]; > 7.00

GET /values?readout=pIC50&system=recombinant human GST-SYK (Homo sapiens)&item= Cc1cc(Nc2nccc(C(F)(F)F)n2)cc(-c2cnc(N(C)CCO)nc2)c1 [Example 2.30]
> 7.00

GET /values?readout=pIC50&system=recombinant human GST-SYK (Homo sapiens)&item= Cc1cc(Nc2nccc(C(F)(F)F)n2)cc(-c2cnc(NC3(C(=O)O)CCC3)nc2)c1 [Example 2.4]
> 7.00

GET /values?readout=pIC50&system=recombinant human GST-SYK (Homo sapiens)&item= Cc1cc(Nc2nccc(C(F)F)n2)cc(-c2cnc([C@H](C)[C@H]3CC[C@H](C(=O)O)[C@H](C)C3)nc2)c1 (single isomer, unassigned) [Example 7.3]
> 7.00

GET /values?readout=pIC50&system=recombinant human GST-SYK (Homo sapiens)&item= CCOC(=O)CCc1cc(-c2cccc(Nc3nccc(C(F)(F)F)n3)c2)ncn1 [Example 3.44]
5.00 to 6.00

GET /values?readout=pIC50&system=recombinant human GST-SYK (Homo sapiens)&item= Cc1cc(Nc2nccc(C(F)(F)F)n2)cc(-c2ncccn2)c1 [Example 3.23]
6.00 to 7.00

GET /values?readout=pIC50&system=recombinant human GST-SYK (Homo sapiens)&item= Cc1cc(Nc2nccc(C(F)(F)F)n2)cc(-c2ccc(CCC(=O)O)nn2)c1 [Example 3.39]
> 7.00

GET /values?readout=pIC50&system=recombinant human GST-SYK (Homo sapiens)&item= Cc1cc(Nc2nccc(C(F)(F)F)n2)cc(-c2cnc(N3CCC(C)(O)CC3)nc2)c1 [Example 2.29]
6.00 to 7.00

GET /values?readout=pIC50&system=recombinant human GST-SYK (Homo sapiens)&item= Cc1cc(Nc2nccc(C(F)F)n2)cc(-c2cnc([C@H](C)[C@H]3CC[C@H](C(=O)O)[C@H](C)C3)nc2)c1 (single isomer, unassigned) [Example 7.6]
> 7.00

GET /values?readout=pIC50&system=recombinant human GST-SYK (Homo sapiens)&item= Cc1cc(Nc2nccc(C(F)(F)F)n2)cc(-c2cnc(N)nc2)c1 [Example 1.3]
> 7.00

GET /values?readout=pIC50&system=recombinant human GST-SYK (Homo sapiens)&item= Cc1cc(Nc2nccc(C(F)(F)F)n2)cc(-c2cnc(NCCCC(=O)O)nc2)c1 [Example 2.11]
> 7.00

GET /values?readout=pIC50&system=recombinant human GST-SYK (Homo sapiens)&item= Cc1cc(Nc2nccc(C(F)(F)F)n2)cc(-c2ccc(N(C)CC(=O)O)nn2)c1 [Example 3.38]
> 7.00

GET /values?readout=pIC50&system=recombinant human GST-SYK (Homo sapiens)&item= COc1ccnc(Nc2cc(C)cc(-c3cnc(CCC(=O)O)nc3)c2)n1 [Example 1.5]
> 7.00

GET /values?readout=pIC50&system=recombinant human GST-SYK (Homo sapiens)&item= Cc1cc(Nc2nccc(C(F)(F)F)n2)cc(-c2cnc(N3CCNC(=O)C3)nc2)c1 [Example 2.46]
> 7.00

GET /values?readout=pIC50&system=recombinant human GST-SYK (Homo sapiens)&item= Cc1cc(Nc2nccc(C(F)(F)F)n2)cc(-c2cnc(N[C@@H]3CCC(=O)NC3)nc2)c1 [Example 2.72]
> 7.00

GET /values?readout=pIC50&system=recombinant human GST-SYK (Homo sapiens)&item= Cc1cc(Nc2nccc(C(F)(F)F)n2)cc(-c2cnc(NC3CCNC3=O)nc2)c1 (stereo not shown) [Example 2.7]
> 7.00

GET /values?readout=pIC50&system=recombinant human GST-SYK (Homo sapiens)&item= O=C(O)CCc1cc(-c2cccc(Nc3nccc(C(F)(F)F)n3)c2)ncn1 [Example 3.45]
6.00 to 7.00

GET /values?readout=pIC50&system=recombinant human GST-SYK (Homo sapiens)&item= COCC1CCCCN1c1ncc(-c2cc(C)cc(Nc3nccc(C(F)(F)F)n3)c2)cn1 (stereo not shown) [Example 2.49]
6.00 to 7.00

GET /values?readout=pIC50&system=recombinant human GST-SYK (Homo sapiens)&item= CCOC(=O)CCc1cc(-c2cc(C)cc(Nc3nccc(C)n3)c2)ncn1 [Example 3.51]
5.00 to 6.00

====

biological target: recombinant human GST-SYK (Homo sapiens, UniProt P43405); construct: purchased Carna Biosciences 08-176; test: Homogeneous Time-Resolved Fluorescence (HTRF) assay for the recombinant human Syk enzyme; type: biochemical; details: GST-hSYK 5 pM, ATP 25 μM, IC50 rated in classes, read-out: rhSYK Activity
reportedMetric: IC50

Cc1cc(Nc2nccc(C(F)(F)F)n2)cc(-c2cnc(CCC(=O)O)nc2)c1; < 100 nM
Cc1cc(Nc2nccc(C(F)(F)F)n2)cc(-c2cnc(NC3CCS(=O)(=O)C3)nc2)c1 (centres unmarked); < 100 nM
Cc1cc(Nc2nccc(C(F)(F)F)n2)cc(-c2cnc(NCCS(N)(=O)=O)nc2)c1; < 100 nM
O=C(O)CCc1ccc(-c2cccc(Nc3nccc(C(F)(F)F)n3)c2)nn1; 100 to 1000 nM

I'd like to know its IC50. The compound in question is Cc1cc(Nc2nccc(C(F)(F)F)n2)cc(-c2cnc(N3CCC(=O)N(C)CC3)nc2)c1
< 100 nM

I'd like to know its IC50. The compound in question is Cc1cc(Nc2nccc(C(F)(F)F)n2)cc(-c2cnc(NC(C)CO)nc2)c1 (centres unmarked)
< 100 nM

I'd like to know its IC50. The compound in question is Cc1cc(Nc2nccc(C(F)(F)F)n2)cc(-c2cnc(NCc3cncn3C)nc2)c1
< 100 nM

I'd like to know its IC50. The compound in question is Cc1cc(Nc2nccc(C(F)(F)F)n2)cc(-c2cnc(NC3CCCCNC3=O)nc2)c1 (centres unmarked)
< 100 nM

I'd like to know its IC50. The compound in question is Cc1cc(Nc2nccc(C(F)(F)F)n2)cc(-c2cnc(OC3CCC(C(=O)O)CC3)nc2)c1 (centres unmarked) [Example 3.59]
< 100 nM

====

target: recombinant human GST-SYK (Homo sapiens, UniProt P43405); construct: purchased Carna Biosciences 08-176; assay: Homogeneous Time-Resolved Fluorescence (HTRF) assay for the recombinant human Syk enzyme; type: biochemical; settings: GST-hSYK 5 pM, ATP 25 μM, IC50 rated in classes, read-out: rhSYK Activity
reportedMetric: IC50

O=C(O)CCc1cnc(-c2cccc(Nc3nccc(C(F)(F)F)n3)c2)cn1; 100 to 1000 nM
Cc1cc(Nc2nccc(C(F)(F)F)n2)cc(-c2cncc(CCC(=O)O)n2)c1; < 100 nM
Cc1cc(Nc2nccc(C(F)(F)F)n2)cc(-c2cnc(N3CCC[C@H]3C(=O)O)nc2)c1; < 100 nM

Now take the following compound into account.
I'd like to know its IC50. The compound in question is Cc1cc(Nc2nccc(C(F)(F)F)n2)cc(-c2cnc(N3CCC(C)(O)C3)nc2)c1 (stereo not shown)
< 100 nM
